From: the supplement of paper PMC11451515

Tested on: SEM cells
Test: cell viability relative to DMSO control; higher = less cytotoxic
Details: HPLM + 10% dialyzed FBS; 48 h; 5.12 µM
Binary label based on cell viability with cut-off 90%: below gives TRUE, not below gives FALSE.

CC[C@H](CO)Nc1nc(NCc2ccccc2)c2ncn(C(C)C)c2n1; FALSE
CO[C@H]1C[C@@H]2CC[C@@H](C)[C@@](O)(O2)C(=O)C(=O)N2CCCC[C@H]2C(=O)O[C@H]([C@@H](C)C[C@@H]2CC[C@@H](O)[C@H](OC)C2)CC(=O)[C@H](C)/C=C(\C)[C@@H](O)[C@@H](OC)C(=O)[C@H](C)C[C@H](C)/C=C/C=C/C=C/1C; TRUE
C[C@@H](Cc1cc2c(c(C(N)=O)c1)N(CCCO)CC2)NCCOc1ccccc1OCC(F)(F)F; FALSE
CCC(=O)N1CCN(CC1)C2=C(C=C(C=C2)N3C(=O)\C=C/C4=C3C5=CC(=CC=C5N=C4)C6=CN=C7C=CC=CC7=C6)C(F)(F)F; TRUE
COc1cc(N2CCC(N3CCN(C)CC3)CC2)ccc1Nc1ncc(Cl)c(Nc2ccccc2[S+](=O)([O-])C(C)C)n1; TRUE
CCC(=O)O[C@@]1(CC[C@H]2[C@@H]3CCC/4=C/C(=O)CC[C@]4(C)[C@H]3CC[C@]12C)C(=O)CO; TRUE
Nc1ncnc2nc(-c3ccc(N4CCOCC4)nc3)cc(-c3cccc(Br)c3)c12; FALSE

Now consider a different molecule.
Say whether its cell viability is strictly beneath 90%. Entry: O=C(O)c1cccnc1
TRUE

====

Tested on: NOMO1
Assay: cell viability relative to DMSO control; higher = less cytotoxic
Settings: RPMI 5 mM glucose + 10% dialyzed FBS; 48 h; 0.0211 µM
measurement-label: cell viability (%)
Report only the number, with the unit % understood.

CC1(C)[C@@H](O)CC[C@@]2(C)[C@H]1CC[C@]3(C)[C@@H]2C(=O)\C=C/4[C@@H]5C[C@](C)(CC[C@]5(C)CC[C@@]34C)C(O)=O; 115
Cc1nc2ccc(CN(C)c3ccc(C(=O)N[C@@H](CCC(=O)O)C(=O)O)s3)cc2c(=O)[nH]1; 120
Nc1nccc(-c2ccc3noc(-c4ccc(Cl)cc4)c3c2)n1; 120

Name the value of cell viability reported for CC(C)(C)NCC(O)c1ccc(O)c(CO)c1 (configuration not stated) when tested on NOMO1.
114

Name the value of cell viability reported for O=C1\C=C(OC2=C(C=CC=C12)C3=CC=CC4=C3SC5=C4C=CC=C5)\N6CCOCC6 when tested on NOMO1.
131

Name the value of cell viability reported for CC(C)[C@H]1C(=O)N[C@H](CO)Cc2c[nH]c3cccc(c23)N1C when tested on NOMO1.
93.2

Name the value of cell viability reported for CCCCN1CCC(CNC(=O)c2c3n(c4ccccc24)CCCO3)CC1 when tested on NOMO1.
114

Name the value of cell viability reported for COc1cc(N2CCN(C)CC2)ccc1Nc1nc(N)c(C(=O)c2c(Cl)cccc2Cl)s1 when tested on NOMO1.
116

====

Test system: SEM cells
Assay: cell viability relative to DMSO control; higher = less cytotoxic
Conditions: RPMI 5 mM glucose + 10% FBS; 48 h; 1.71 µM
measurement-label: cell viability (%)
Report only the number, with the unit % understood.

CCOC(=O)c1c(CSc2ccccc2)n(C)c2cc(Br)c(O)c(CN(C)C)c12; 129
N#Cc1cc(NC(=O)Nc2nnc(-c3ccncc3)s2)ccc1-c1cn[nH]c1; 105

Report cell viability for CC(C)(C)[C@]1(O)C[C@@H]2OC(=O)C[C@@]23C(=O)O[C@@H]2OC(=O)[C@H](O)C213 (stereo partly drawn)
90.4
